The entries below come with measured Ki values attached.
Molecular target: Bcl-xL protein (Homo sapiens, UniProt Q07817, N197C)
Construct: (2-197)[N197C]; His-His (two His8 stretches joined by a Gly/Ala/Ser/Thr linker)
Sequence (Q07817 2-197 N197C): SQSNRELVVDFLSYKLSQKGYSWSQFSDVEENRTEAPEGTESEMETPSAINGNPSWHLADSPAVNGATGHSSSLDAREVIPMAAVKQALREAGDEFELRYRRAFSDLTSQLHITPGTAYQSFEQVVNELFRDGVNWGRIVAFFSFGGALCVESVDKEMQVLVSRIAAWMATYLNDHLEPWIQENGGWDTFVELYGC
Test: Fluorescence quenching assay (PUMA peptide displacement)
Details: 1 nM protein, 400 nM peptide, 2 hours at 23° C.; KI determined from IC50
parameter: Ki (pM)

[[record]]
molecule = "Cc1cc(N(CCCCN2CCNCC2)c2nc(C(=O)O)c(CCCOc3ccc(C#CCN(C)C)cc3F)s2)nnc1Nc1nc2ccccc2s1 [Example 184]"
resultunits = "pM"
observedvalue = 3.6

[[record]]
molecule = "Cc1cc(N(CCCC(O)CN2CCNCC2)c2nc(C(=O)O)c(CCCOc3ccc(C#CCN(C)C)cc3F)s2)nnc1Nc1nc2ccccc2s1 (stereo not shown) [Example 172]"
resultunits = "pM"
observedvalue = 2.6

[[record]]
molecule = "Cc1cc(N(C)c2nc(C(=O)O)c(CCCOc3ccc(C#CC(C)N4CCOCC4)cc3F)s2)nnc1Nc1nc2ccccc2s1 (single isomer, unassigned) [Example 208]"
resultunits = "pM"
observedvalue = 8.8

[[record]]
molecule = "CNCC#Cc1ccc(OCCCc2sc(N(CCCN(C)C)c3cc(C)c(Nc4nc5ccccc5s4)nn3)nc2C(=O)O)c(F)c1 [Example 200]"
resultunits = "pM"
observedvalue = 7.7

[[record]]
molecule = "CNCC#Cc1ccc(OC/C(C)=C/c2sc(N(C)c3cc(C)c(Nc4nc5ccccc5s4)nn3)nc2C(=O)O)c(F)c1 [Example 174]"
resultunits = "pM"
observedvalue = 43

[[record]]
molecule = "CCN(CC)CCNCC(O)CCCN(c1cc(C)c(Nc2nc3ccccc3s2)nn1)c1nc(C(=O)O)c(CCCOc2ccc(C#CCN(C)C)cc2F)s1 (stereo not shown) [Example 170]"
resultunits = "pM"
observedvalue = 5

[[record]]
molecule = "Cc1cc(N(C)c2ccc(-c3cnn(CC45CC6(C)CC(C)(C4)CC(OCCN4CCOCC4)(C6)C5)c3C)c(C(=O)O)n2)nnc1Nc1nc2ccccc2s1 [Example 270]"
resultunits = "pM"
observedvalue = 3

[[record]]
molecule = "Cc1cc(N(C)c2nc(C(=O)O)c(CC(C)COc3ccc(C#CCN(C)C)cc3F)s2)nnc1Nc1nc2ccccc2s1 (stereo not shown) [Example 116]"
resultunits = "pM"
observedvalue = 8.6

[[record]]
molecule = "Cc1cc(N(CCCCS(=O)(=O)O)c2nc(C(=O)O)c(CCCOc3ccc(C#CCN(C)C)cc3F)s2)nnc1Nc1nc2ccccc2s1 [Example 241]"
resultunits = "pM"
observedvalue = 9.4

[[record]]
molecule = "Cc1cc(N(C)c2nc(C(=O)[O-])c(CCCOc3ccc(C#CCNCC[N+](C)(C)C)cc3F)s2)nnc1Nc1nc2ccccc2s1 [Example 222]"
resultunits = "pM"
observedvalue = 1.4

[[record]]
molecule = "CNCC#Cc1ccc(OCCCc2sc(N(CCCCCN=[N+]=[N-])c3cc(C)c(Nc4nc5ccccc5s4)nn3)nc2C(=O)O)c(F)c1 [Example 267]"
resultunits = "pM"
observedvalue = 16

[[record]]
molecule = "Cc1cc(N(CCCCCN2CCC(N)CC2)c2nc(C(=O)O)c(CCCOc3ccc(C#CCN(C)C)cc3F)s2)nnc1Nc1nc2ccccc2s1 [Example 177]"
resultunits = "pM"
observedvalue = 3

[[record]]
molecule = "CNCC#Cc1ccc(OCCCc2sc(N(CC(CO)OC)c3cc(C)c(Nc4nc5ccccc5s4)nn3)nc2C(=O)O)c(F)c1 (stereo not shown) [Example 118]"
resultunits = "pM"
observedvalue = 33


// provenance: patent US12649733B2
